- System: sGFP::ATZ
- EXPERIMENT_NOTES: LOPAC library high-content primary screen for sGFP::ATZ accumulation in transgenic animals
- Format: in vivo, C. elegans
- CONDITIONS_USED: among compounds that decreased ATZ accumulation, based on relative rank-scores
Structures can show the parent of a compound that is named as a salt.
Classification by Overall rank-order follows these ranges: c1: < 10; c2: ≥ 10 and < 20; c3: ≥ 20

| COMPOUND | GROUP_LABEL |
| --- | --- |
| NC(=Nc1ccccc1)NC(=O)c1nc(Cl)c(N)nc1N [phenamil methanesulfonate] | c2 |
| O=c1[nH]c2cc(Cl)ccc2c(O)c1-c1cccc(Oc2ccccc2)c1 | c2 |
| O=C1Nc2ccccc2/C1=C1/Nc2ccccc2/C1=N\O | c3 |
| C[C@](N)(Cc1ccc(O)c(O)c1)C(=O)O | c2 |
| NCc1cc(=O)[nH]o1 [muscimol hydrobromide] | c1 |
| CC12C(=O)OC(=O)C1(C)C1CCC2O1 (stereo not shown) | c1 |
| COc1ccc(C2CNC(=O)C2)cc1OC1CCCC1 (stereo not shown) | c2 |
| CN1CCN(CCCN2c3ccccc3Sc3ccc(Cl)cc32)CC1 [prochlorperazine dimaleate] | c3 |
| O=c1[nH]c2ccccc2n1C1CCN(CCCC(c2ccc(F)cc2)c2ccc(F)cc2)CC1 [pimozide] | c3 |

====

Each record here notes measured Overall rank-order.
- System: sGFP::ATZ
- EXPERIMENT_NOTES: LOPAC library high-content primary screen for sGFP::ATZ accumulation in transgenic animals
- Assay type: in vivo, C. elegans
- CONDITIONS_USED: among compounds that decreased ATZ accumulation, based on relative rank-scores
Counter-ions that a name gives are not always drawn.

| MOLECULE | Overall rank-order |
| --- | --- |
| Cl.Cl.OCCN1CCN(CC/C=C2/c3ccccc3Sc3ccc(C(F)(F)F)cc32)CC1 [cis-(Z)-flupenthixol dihydrochloride] | 20 |
| CO[C@@]1(NC(=O)CSCC#N)C(=O)N2C(C(=O)O)=C(CSc3nnnn3C)CS[C@@H]21 [cefmetazole sodium] | 9 |
| CC/C(=C(\c1ccccc1)c1ccc(OCCN(C)C)cc1)c1ccccc1 [tamoxifen citrate] | 24 |
| NCCc1c[nH]c2ccc(C(N)=O)cc12.O=C(O)/C=C\C(=O)O [5-carboxamidotryptamine maleate] | 29 |
| CC1=C(C(=O)O)N2C(=O)[C@@H](NC(=O)[C@H](N)C3=CCC=CC3)[C@H]2SC1 | 27 |
| Cc1c(CC(C)(C)C(=O)O)n(Cc2ccc(Cl)cc2)c2ccc(F)cc12 | 3 |
| CCCN(CCC)[C@H]1CCc2c(F)ccc(O)c2C1.Cl [S(−)-UH-301 hydrochloride] | 17 |
| COc1[nH]c2ccc(F)cc2c1C(=O)OCC1CCN(CCNS(C)(=O)=O)CC1.NS(=O)(=O)O [GR 125487 sulfamate salt] | 4 |
| N#CC(C#N)=C(N)/C(C#N)=C/c1ccc(O)cc1 | 30 |
| COc1cccc(C(=O)NCCN2CCN(c3ccc(Cl)cc3)CC2)c1 | 8 |
| CCN1CCc2nc(N)oc2CC1.Cl.Cl [B-HT 933 dihydrochloride] | 32 |
| CN[C@@H]1C[C@@H](c2ccc(Cl)c(Cl)c2)c2ccccc21 [indatraline hydrochloride] | 28 |
| C[N+]1(C)CCc2cc3c(cc2[C@H]1[C@@H]1OC(=O)c2c1ccc1c2OCO1)OCO3.[Br-] [(−)-bicuculline methbromide, 1(S), 9(R)] | 26 |
| Cl.N[C@@H](CCl)C(=O)O [beta-chloro-L-alanine hydrochloride] | 16 |
| Cn1ccc2cc3c(cc21)CCN3C(=O)Nc1cccnc1 [SB 206553 hydrochloride] | 11 |
| CCN(CC)C(C)C(=O)N1c2ccccc2Sc2ccccc21.Cl (stereo not shown) | 21 |
